For each record, write down the corresponding Vd.
# protocol description: Experiment 3: pharmacokinetic evaluation in CD-1 mice (IV and oral)
# Assay type: in vivo
# experimental parameters: mouse, plasma; female CD-1 mice; IV 1 mg/kg; read-out: Volume of distribution at steady state Vdss
Where a name gives a salt, the structure may show the parent alone.
One number for each entry, in L/kg.

Examples with answers:
{"compound": "COc1ccc(-c2sc(C(=O)N3CCC[C@@H](N)C3)cc2-c2ccc(C#N)c(F)c2)cc1F [Hydrochloride of compound 1]", "measurement units": "L/kg", "measurement": 7.66}
{"compound": "COc1ccc(-c2sc(C(=O)N3CCCNCC3)cc2-c2ccc(C#N)c(F)c2)cc1F [Hydrochloride of compound 6]", "measurement units": "L/kg", "measurement": 7.76}
{"compound": "Cn1cc2cc(-c3sc(C(=O)N4CCC[C@@H](N)C4)cc3-c3ccc(C#N)c(F)c3)ccc2n1 [Hydrochloride of compound 36]", "measurement units": "L/kg", "measurement": 4.71}

Record Vd per entry; entries follow.
1. COc1ccc(-c2sc(C(=O)N3C4CCC3C(N)C4)cc2-c2ccc(C#N)c(F)c2)cc1F (racemic) [Hydrochloride of compound 2]
2. COc1ccc(-c2sc(C(=O)N3CC[C@H](N)C3)cc2-c2ccc(C#N)c(F)c2)cc1F [Hydrochloride of compound 7]

OUT:
7.9
6.19

* * *

# measured target: human LSD1 (Homo sapiens (Human), UniProt O60341)
# protocol description: Experiment 1B: in vitro LSD1 enzyme activity, enzyme-coupled fluorescence (HRP/Amplex Red), H3(1-21)K4me2 peptide 10 μM (Reaction Biology)
# Format: biochemical
# experimental parameters: histone H3(1-21)K4me2 peptide 10 μM
Counter-ions that a name gives are not always drawn.
Field: label. Allowed values: label 1 (IC50 < 20 nM) or label 0 (IC50 >= 20 nM).

Study these solved cases before continuing.
{"compound": "CC(C)(O)Cn1ncc2cc(-c3sc(C(=O)N4CCC[C@@H](N)C4)cc3-c3ccc(C#N)c(F)c3)cnc21 [Compound 60]", "assigned label": "label 1"}
{"compound": "N#Cc1ccc(-c2cc(C(=O)N3CCC[C@@H](N)C3)sc2-c2ccc3c(c2)nnn3[C@H]2COCC[C@@H]2O)cc1F [Hydrochloride of compound 90]", "assigned label": "label 0"}
{"compound": "N#Cc1ccc(-c2cc(C(=O)N3CCC[C@@H](N)C3)sc2-c2ccc3nn([C@H]4COCC[C@@H]4O)cc3c2)cc1F [Hydrochloride of compound 88]", "assigned label": "label 0"}

IN: Here's an entry: CN[C@@H]1CCCN(C(=O)c2cc(-c3ccc(C#N)c(F)c3)c(-c3ccc4c(c3)nnn4CC(C)(C)O)s2)C1 [Hydrochloride of compound 121] . Is its IC50 below 20 nM?
OUT: label 1

IN: Here's an entry: CS(=O)(=O)c1ccc(-c2sc(C(=O)N3CCC[C@@H](N)C3)cc2-c2ccc(C#N)c(F)c2)cc1 [Hydrochloride of compound 44] . Is its IC50 below 20 nM?
OUT: label 0

IN: Here's an entry: CN[C@@H]1CCCN(C(=O)c2cc(-c3ccc(C#N)c(F)c3)c(-c3ccc4nn(C(C)(C)CO)cc4c3)s2)C1 [Hydrochloride of compound 104] . Is its IC50 below 20 nM?
OUT: label 1

IN: Here's an entry: COc1ccc(-c2sc(C(=O)N3CC[C@@H](F)[C@@H](N)C3)cc2-c2ccc(C#N)c(F)c2)cc1F [Hydrochloride of compound 20] . Is its IC50 below 20 nM?
OUT: label 1

IN: Here's an entry: CC(C)(O)Cn1ncc2cc(-c3sc(C(=O)N4CCC[C@@H](N)C4)cc3-c3ccc(C#N)c(F)c3)ccc21 [Compound 57] . Is its IC50 below 20 nM?
OUT: label 1

* * *

# protocol description: Experiment 3: pharmacokinetic evaluation in CD-1 mice (IV and oral)
# Format: in vivo
# experimental parameters: mouse, plasma; male CD-1 mice; IV 1 mg/kg; read-out: Half life T1/2 (IV, h) (converted)
Counter-ions that a name gives are not always drawn.
For each record, write down the corresponding half-life.
One number for each entry, in h.

Examples with answers:
{"molecule": "CC(C)(CO)n1nnc2cc(-c3sc(C(=O)N4CCC[C@@H](N)C4)cc3-c3ccc(C#N)c(F)c3)c(F)c(F)c21 [Hydrochloride of compound 99]", "measurement units": "h", "measurement": 2.48}
{"molecule": "COc1ccc(-c2sc(C(=O)N3CCC[C@@H](N)C3)cc2-c2ccc(C#N)c(F)c2)cc1F [Hydrochloride of compound 1]", "measurement units": "h", "measurement": 6.13}

IN: Entry CC(C)(CO)n1cc2cc(-c3sc(C(=O)N4CCC[C@@H](N)C4)cc3-c3ccc(C#N)c(F)c3)ccc2n1 [Hydrochloride of compound 87] : reported half-life = ?
OUT: 1.54

* * *

For each record, write down the corresponding AUC(0-t).
# protocol description: Experiment 3: pharmacokinetic evaluation in CD-1 mice (IV and oral)
# Format: in vivo
# experimental parameters: mouse, plasma; male CD-1 mice; PO 2 mg/kg; read-out: Area under drug-time curve AUC0-last PO
Structures can show the parent of a compound that is named as a salt.
Give bare numbers, in µM·h.

Examples with answers:
{"compound": "CN[C@@H]1CCCN(C(=O)c2cc(-c3ccc(C#N)c(F)c3)c(-c3cc4nnn(CC(C)(C)O)c4c(F)c3F)s2)C1 [Hydrochloride of compound 98]", "AUC(0-t) (µM·h)": 0.708}
{"compound": "CC(C)(CO)n1nnc2cc(-c3sc(C(=O)N4CCC[C@@H](N)C4)cc3-c3ccc(C#N)c(F)c3)c(F)c(F)c21 [Hydrochloride of compound 99]", "AUC(0-t) (µM·h)": 0.625}

IN: Entry COc1ccc(-c2sc(C(=O)N3CCC[C@@H](N)C3)cc2-c2ccc(C#N)c(F)c2)cc1F [Hydrochloride of compound 1] : reported AUC(0-t) = ?
OUT: 2.24

* * *

For each record, write down the corresponding half-life.
# protocol description: Experiment 3: pharmacokinetic evaluation in CD-1 mice (IV and oral)
# Assay type: in vivo
# experimental parameters: mouse, plasma; male CD-1 mice; IV 1 mg/kg; read-out: Half life T1/2 (IV, h) (converted)
Where a name gives a salt, the structure may show the parent alone.
Answers are plain numbers, in h.

{"molecule": "Cn1cc2cc(-c3sc(C(=O)N4CCC[C@@H](N)C4)cc3-c3ccc(C#N)c(F)c3)ccc2n1 [Hydrochloride of compound 36]", "measurement": 2.1}
{"molecule": "CN[C@@H]1CCCN(C(=O)c2cc(-c3ccc(C#N)c(F)c3)c(-c3cc4nnn(CC(C)(C)O)c4c(F)c3F)s2)C1 [Hydrochloride of compound 98]", "measurement": 2.28}

IN: Entry COC1CC(n2cc3cc(-c4sc(C(=O)N5CCC[C@@H](N)C5)cc4-c4ccc(C#N)c(F)c4)ccc3n2)C1 (stereo partly drawn) [Hydrochloride of compound 80] : reported half-life = ?
OUT: 1.93

* * *

# protocol description: Experiment 3: pharmacokinetic evaluation in CD-1 mice (IV and oral)
# Type: in vivo
# experimental parameters: mouse, plasma; female CD-1 mice; PO 2 mg/kg; read-out: Area under drug-time curve AUC0-last PO
Counter-ions that a name gives are not always drawn.
Field: label. Allowed values: met (AUC(0-t) < 2 µM·h) or not met (AUC(0-t) >= 2 µM·h).

Study these solved cases before continuing.
{"molecule": "Cn1cc2cc(-c3sc(C(=O)N4CCC[C@@H](N)C4)cc3-c3ccc(C#N)c(F)c3)ccc2n1 [Hydrochloride of compound 36]", "assigned label": "met"}
{"molecule": "COc1ccc(-c2sc(C(=O)N3CCCNCC3)cc2-c2ccc(C#N)c(F)c2)cc1F [Hydrochloride of compound 6]", "assigned label": "not met"}

IN: Here's an entry: COc1ccc(-c2sc(C(=O)N3C4CCC3C(N)C4)cc2-c2ccc(C#N)c(F)c2)cc1F (racemic) [Hydrochloride of compound 2] . Is its AUC(0-t) below 2 µM·h?
OUT: met

IN: Here's an entry: COc1ccc(-c2sc(C(=O)N3CCC[C@@H](N)C3)cc2-c2ccc(C#N)c(F)c2)cc1F [Hydrochloride of compound 1] . Is its AUC(0-t) below 2 µM·h?
OUT: met

IN: Here's an entry: COc1ccc(-c2sc(C(=O)N3CC[C@H](N)C3)cc2-c2ccc(C#N)c(F)c2)cc1F [Hydrochloride of compound 7] . Is its AUC(0-t) below 2 µM·h?
OUT: met

* * *

# protocol description: Experiment 3: pharmacokinetic evaluation in CD-1 mice (IV and oral)
# Assay type: in vivo
# experimental parameters: mouse, plasma; female CD-1 mice; IV 1 mg/kg; read-out: Half life T1/2 (IV, h) (converted)
Counter-ions that a name gives are not always drawn.
Field: label. Allowed values: 1.0 (half-life < 5 h) or 0.0 (half-life >= 5 h).

Study these solved cases before continuing.
{"molecule": "COc1ccc(-c2sc(C(=O)N3CCC[C@@H](N)C3)cc2-c2ccc(C#N)c(F)c2)cc1F [Hydrochloride of compound 1]", "assigned label": 0.0}
{"molecule": "COc1ccc(-c2sc(C(=O)N3C4CCC3C(N)C4)cc2-c2ccc(C#N)c(F)c2)cc1F (racemic) [Hydrochloride of compound 2]", "assigned label": 0.0}
{"molecule": "Cn1cc2cc(-c3sc(C(=O)N4CCC[C@@H](N)C4)cc3-c3ccc(C#N)c(F)c3)ccc2n1 [Hydrochloride of compound 36]", "assigned label": 1.0}
{"molecule": "COc1ccc(-c2sc(C(=O)N3CC[C@H](N)C3)cc2-c2ccc(C#N)c(F)c2)cc1F [Hydrochloride of compound 7]", "assigned label": 1.0}

Field: next molecule
IN: Here's an entry: COc1ccc(-c2sc(C(=O)N3CCCNCC3)cc2-c2ccc(C#N)c(F)c2)cc1F [Hydrochloride of compound 6] . Is its half-life below 5 h?
OUT: 0.0
